Attribute: protein stability index
B1: CPXM2 (parent)
chain: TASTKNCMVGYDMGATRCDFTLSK

- Variants of: B1
- assay name: protein stability index of a GFP-peptide fusion (GPS, HEK-293T) (PSI 1-6); higher = more stable;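 note: lentivirally expressed fusions sorted by FACS into six bins by GFP to DsRed ratio, PSI derived from sequencing read proportions per bin multiplied by bin number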
- assay setup: c terminus: a fixed tail appended
Respond using a number only.

Consider the reported protein stability index for these variants:
> print(dat)
   variant.designation  endpoint.value
1                  V9L            2.05
2                  T4W            1.82
3                  T4E            2.12
4                  A2T            2.06
5                  M8I            1.62

INPUT: Would you mind telling me what protein stability index value was observed for A2C ?
OUTPUT: 1.64

INPUT: Could you share which protein stability index value was measured for T16L ?
OUTPUT: 2.45

INPUT: Value lookup for protein stability index; key = D19P
OUTPUT: 2.77

INPUT: Name the recorded protein stability index for S23K .
OUTPUT: 2.78

INPUT: Item F20P has what recorded protein stability index?
OUTPUT: 4.12
